- ASSAY NOTES: Inhibition of MurE (unknown origin) at 100 uM relative to control

| ITEM SMILES | inhibition (%) |
| --- | --- |
| Cc1cc(N2CCCC2)cc(C)c1/C=C/c1cncc(-c2nnn[nH]2)c1 | 16 |
| Cc1cc(-c2ccco2)cc(C)c1/C=C/c1cncc(C2=NCCO2)c1 | 32 |
| Cc1cc(Br)cc(C)c1/C=C/c1cncc(-c2nnn[nH]2)c1 | 38 |
| Cc1cc(-c2ccco2)cc(C)c1/C=C/c1cncc(C#N)c1 | 35 |
| COC(=O)c1cccc(-c2cc(C)c(/C=C/c3cncc(-c4nnn[nH]4)c3)c(C)c2)c1 | 23 |
| Cc1cc(N2CCCCC2=O)cc(C)c1/C=C/c1cncc(-c2nnn[nH]2)c1 | 30 |
| Cc1cc(-c2ccco2)cc(C)c1/C=C/c1cncc(C2=NCCS2)c1 | 46 |
| COc1ccccc1-c1cc(C)c(/C=C/c2cncc(-c3nnn[nH]3)c2)c(C)c1 | 33 |
| Cc1cc(-c2ccoc2)cc(C)c1/C=C/c1cncc(-c2nnn[nH]2)c1 | 18 |
| Cc1cc(-c2ccncc2)cc(C)c1/C=C/c1cncc(-c2nnn[nH]2)c1 | 19 |
